# Tested on: Fibroblast
# Protocol Description: Multiplex assay against human fibroblast
# Type: toxicity, cell-based
# Condition: 12 h, 1 µM, compound concentration 1 uM, replicate 1
Observation Type: Population Pyknosed Nuclei (%)

Compound	Unit Descriptor	Quantitative Result
CN(C)C(=O)Cn1cc(-c2ccc(-c3nnc4ccccn34)cc2)cn1	%	21
Cc1cc(-c2ccc3c(c2)CC[C@H]3N2CC3(CCN(C(=O)Cc4cn5cc(C)sc5n4)CC3)C2)ncn1 [PF-5190457]	%	11
C=CCN1C[C@H](C(=O)N(CCCN(C)C)C(=O)NCC)C[C@@H]2c3cccc4[nH]cc(c34)C[C@H]21 [CABERGOLINE]	%	7
CN(C)C/C=C/C(=O)Nc1ccc(C(=O)N2CCCC(Nc3ncc(Cl)c(-c4c[nH]c5ccccc45)n3)C2)cc1 (configuration not stated)	%	19
CN1CCC(C(=O)c2cccc(NC(=O)c3c(F)cc(F)cc3F)n2)CC1	%	18
O=C(NCCNCC(O)COc1ccc(O)cc1)N1CCOCC1.O=C(NCCNCC(O)COc1ccc(O)cc1)N1CCOCC1.O=C(O)/C=C/C(=O)O (configuration not stated) [XAMOTEROL FUMARATE]	%	17
Cc1nn(C)c2nc(NNC(=O)Nc3cc(Cl)nc(Cl)c3)cc(C(C)C)c12	%	15
CC(C)(C)c1ccc(CSc2cnn(C(C)(C)C)c(=O)c2Cl)cc1 [PYRIDABEN]	%	17
Nc1nc(-c2ccco2)c2cnn(Cc3ccccc3F)c2n1	%	11
O=c1ccc2ccc(OCCCCN3CCN(c4cccc5sccc45)CC3)cc2[nH]1 [BREXPIPRAZOLE]	%	20
CN1CCN2c3ccccc3Cc3ccccc3C2C1.Cl (configuration not stated) [MIANSERIN HYDROCHLORIDE]	%	14
C[C@@H]1CC(=O)Nc2cccc(-c3ccc4c(c3)c(-c3cnn(C)c3)nn4C)c2N1	%	15
Cc1cc(O)c(-c2ccc([C@@H](C)CN(C)C)cc2)c2c1[nH]c(=O)c1sccc12	%	20
Cc1sc2c(c1C)C(c1ccc(Cl)cc1)=N[C@H](CC(=O)OC(C)(C)C)c1nnc(C)n1-2	%	22
CCCCCCNC(=O)Nc1ccc(S(=O)(=O)Nc2ccc(CCNC[C@H](O)COc3ccc(O)cc3)cc2)cc1 [L-755507]	%	12
CSc1nc(NC2CCCC2)c([N+](=O)[O-])c(NC2CCCC2)n1 [GS-39783]	%	16
CCn1c(-c2nc3cc(C(=O)N4CCCC(N)C4)ccc3n2C)cc2ccccc21.Cl (configuration not stated)	%	15

----------
# System: Fibroblast
# Protocol Description: Multiplex assay against human fibroblast
# Type: toxicity, cell-based
# Condition: 48 h, 1 µM, compound concentration 1 uM, replicate 2
Observation Type: Population Hoechst High Intensity Objects (%)

Compound	Quantitative Result
COC(c1ccccc1)(c1ccccc1)[C@H](Oc1nc(C)cc(C)n1)C(=O)O [AMBRISENTAN]	0
S=C(NCCCc1c[nH]cn1)NCCCN(Cc1ccc(Cl)c(Cl)c1)c1ccc(Br)cn1	4
O=C(O)CCC/C=C\CC1C(O)CC(O)C1/C=C/C(O)COc1cccc(Cl)c1 (stereo unspecified) [CLOPROSTENOL]	3
O=c1nc2[nH]c3ccccc3nc-2c(=O)[nH]1 [ALLOXAZINE]	3
CSc1nc(NC2CCCC2)c([N+](=O)[O-])c(NC2CCCC2)n1 [GS-39783]	3
Nc1nc(CC(=O)Nc2ccc(CCNC[C@H](O)c3ccccc3)cc2)cs1 [MIRABEGRON]	2
Cc1ccc(OCC(O)C(C)NC(C)C)c2c1CCC2.Cl (stereo unspecified)	11
Cc1cc(NC(=O)NCCN2CCC(O)(Cc3ccccc3)CC2)c2ccccc2n1 [PALOSURAN]	7
Cc1cc(=O)n(C)c2cc(N3C(=O)CC[C@H](NS(=O)(=O)CC(C)C)[C@H]3c3ccc(Cl)cc3)ccc12	7
CN1CCN2c3ccccc3Cc3ccccc3C2C1.Cl (stereo unspecified) [MIANSERIN HYDROCHLORIDE]	3
C[C@H](NC(=O)CNC(=O)c1cccc(Cl)c1)c1ccccc1	3
